Molecular target: T1, human Chemokine like receptor 1 (human, UniProt Q99788 1-373)
T1 sequence (looked up): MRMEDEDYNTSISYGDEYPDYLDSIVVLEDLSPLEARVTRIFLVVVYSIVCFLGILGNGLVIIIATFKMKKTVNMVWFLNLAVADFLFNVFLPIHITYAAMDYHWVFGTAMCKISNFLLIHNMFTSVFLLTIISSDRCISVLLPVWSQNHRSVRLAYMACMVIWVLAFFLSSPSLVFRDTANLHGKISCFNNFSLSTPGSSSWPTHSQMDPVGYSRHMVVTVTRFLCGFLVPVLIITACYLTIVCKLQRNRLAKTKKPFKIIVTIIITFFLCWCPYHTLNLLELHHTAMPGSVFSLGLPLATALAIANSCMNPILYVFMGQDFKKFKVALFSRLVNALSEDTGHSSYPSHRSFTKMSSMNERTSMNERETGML
Assay: cell-based or functional assay
Square brackets hold non-standard residues; d marks the D form. Ends that are not written are not given here. * marks the point of attachment. Pro(diF) = difluoro-proline, as coded in the source; 3‑phenylpropyl = c1ccc(CCC*)cc1; Tic = O=C(O)[C@@H]1Cc2ccccc2CN1; NMeL = CN[C@@H](CC(C)C)C(=O)O
Please provide measured EC50 (µM), activation of Tango CMKLR1-bla U2OS cells for the entries that follow.
Report the value in µM with no unit label.

*Q* Can you share its EC50 (µM), activation of Tango CMKLR1-bla U2OS cells? I mean this binder: {3‑phenylpropyl}-[dY]FLP[dS]QF[dA][Tic]S-OH (SMILES CC(C)C[C@H](NC(=O)[C@H](Cc1ccccc1)NC(=O)[C@@H](Cc1ccc(O)cc1)NCCCc1ccccc1)C(=O)N1CCC[C@H]1C(=O)N[C@H](CO)C(=O)N[C@@H](CCC(N)=O)C(=O)N[C@@H](Cc1ccccc1)C(=O)N[C@H](C)C(=O)N1Cc2ccccc2C[C@H]1C(=O)N[C@@H](CO)C(=O)O) [YW-74]
*A* 0.0062

*Q* Queued: [dY]F[NMeL][Pro(diF)][dS]QF[dA][Tic]S-OH [YW-174]
*A* 0.0012
